# Measurement Protocol: PBS Stability Assay
# Type: physicochemical
# Condition Info: buffer, pH 7.4, 2 μM, phosphate buffered saline pH 7.4; read-out: PBS T½
Quantity Kind: half-life at 2 μM

COC(=O)N[C@H](C(=O)N[C@@H](Cc1ccc(C#Cc2cnc(N3CC4CCC(C3)N4C3COC3)nc2)cc1)[C@H](CN(Cc1c(F)cc(-c2ccn(C(F)F)n2)cc1F)NC(=O)[C@@H](NC(=O)OC)C(C)(C)C(F)(F)F)OC(=O)OCOC(=O)CC(C)(C)c1c(CC(=O)NCC(=O)O)cc(C)cc1OP(=O)(O)O)C(C)(C)C(F)(F)F: 7.86 h
COC(=O)N[C@H](C(=O)N[C@@H](Cc1ccc(C#Cc2cnc(N3CC4CCC(C3)N4C3COC3)nc2)cc1)[C@H](CN(Cc1c(F)cc(-c2ccn(C(F)F)n2)cc1F)NC(=O)[C@@H](NC(=O)OC)C(C)(C)C(F)(F)F)OC(=O)CC(C)(C)c1c(CC(=O)N[C@]2(C(=O)O)CCOC2)cc(C)cc1OP(=O)(O)O)C(C)(C)C(F)(F)F: 8.56 h

half-life at 2 μM lookup needed for `COC(=O)N[C@H](C(=O)N[C@@H](Cc1ccc(C#Cc2cnc(N3CC4CCC(C3)N4C3COC3)nc2)cc1)[C@H](CN(Cc1c(F)cc(-c2ccn(C(F)F)n2)cc1F)NC(=O)[C@@H](NC(=O)OC)C(C)(C)C(F)(F)F)OC(=O)OCOC(=O)CC(C)(C)c1c(CC(=O)N2CC[C@H](C(=O)O)C2)cc(C)cc1OP(=O)(O)O)C(C)(C)C(F)(F)F` , thanks.
4.77 h
